System: HT29 colon
Test: NCI tumour cell line growth inhibition, 48 h
I'd appreciate it if you could supply TGI values for the items below.

// returns TGI for Cc1cc(Cl)ccc1NC(=O)/C(Cc1nc2ccc(C(=O)c3ccccc3)cc2[nH]c1=O)=N/NC(=O)c1ccncc1 with HT29 colon; value = > 100 µM

# TGI measured on HT29 colon for item O=C1CCCSCCCC(=O)CCCSCCC1 = > 100 µM

Measured TGI for this entry Cc1cc(N(CCC#N)CCC#N)ccc1N=Nc1ccccc1[N+](=O)[O-] on HT29 colon: > 100 µM

====

Tested on: HCC-2998 colon
Assay: NCI tumour cell line growth inhibition, 48 h
Provide the reported TGI of each item.

The recorded TGI for CCOC(=O)Nn1cnnc1Cc1ccccc1 is > 100 µM

Input c1ccc2c(c1)Sc1ccccc1N2CCCN1c2ccccc2Sc2ccccc21 . Output TGI: > 100 µM

Entry O=NN(CCCl)C(=O)NCc1ccc[n+]([O-])c1 ; TGI = > 100 µM

====

System: COLO 205 colon
Assay: NCI tumour cell line growth inhibition, 48 h
Would you mind telling me the reported TGI of each entry?
# output: bare number, implied unit µM

Form field TGI for item COC(=O)/C=C1\SC(=Nc2ccc(C(F)(F)F)cc2)N(CCc2c[nH]c3ccccc23)C1=O on COLO 205 colon: 3.65

Item: [N-]=[N+]=NC1(c2ccccc2)C(=O)c2cccc3c4ccccc4n(c23)C1=O (stereo not drawn) | System: COLO 205 colon | TGI: 38.7

The recorded TGI with COLO 205 colon for O=c1oc2ccccc2c(Cl)c1Cl was 4.84

Item: COc1ccc(/C=C/C(=O)/C=C(/C=C/c2ccc(OC)c(OC)c2)OB(F)F)cc1OC | System: COLO 205 colon | TGI: 1.57

The recorded TGI with COLO 205 colon for O=C(Nc1ncc([N+](=O)[O-])s1)c1cccc([N+](=O)[O-])c1 was 24.7

The molecule COc1cccc(/C=C\c2cc(OC)c(OC)c(OC)c2)c1 , when measured on COLO 205 colon, yielded TGI of 17.3

Field TGI (COLO 205 colon), entry N#Cc1c(-c2cccc(Br)c2)cc(-c2ccc(Cl)cc2)nc1N : 27.2

Hey, COLO 205 colon data for CCNCCNc1cc(-c2ccc(Cl)cc2)c(C#N)c2nc3ccccc3n12 : TGI came out at 3.27

====

System: NCI/ADR-RES ovarian
Experiment: NCI tumour cell line growth inhibition, 48 h
Assign TGI to each entry below.

# TGI (compound: Cc1ccc(/C(O)=C/c2nc3ccccc3nc2NC23CC4CC(CC(C4)C2)C3)cc1 ) is > 10 µM

Looking up COc1cc2c3c(n(CCCO)c(=O)c2cc1OC)-c1cc2c(cc1C3=O)OCO2 , I found its TGI recorded as > 53.4 µM

Measured TGI, CCOC(=O)Oc1c(OC)cc(C(=O)c2ccc(OC)c(OC(=O)CCl)c2OC)cc1OC : 3.98 µM

# compound c1ccc2c(c1)Sc1ccccc1N2CCCN1c2ccccc2Sc2ccccc21 ; its TGI = > 100 µM

Lookup result for CCOC(=O)NC(OCCN(C)C)(C(F)(F)F)C(F)(F)F ; measured TGI: > 100 µM

Reported TGI for O=c1cnn(C/C=C/CP(=O)(O)O)c(=O)[nH]1 was > 100 µM

====

Test system: SK-MEL-2 melanoma
Assay: NCI tumour cell line growth inhibition, 48 h
Reported metric: TGI

Value of measured TGI for the entry COc1ccc(/C=C/C(=N/NC(=O)N/N=C(/C=C/c2ccc(OC)cc2)C(C)C)C(C)C)cc1 : > 100 µM

Per the records, this molecule ( COc1cc(-c2cc(C(=O)Nc3nc4ccccc4s3)nc3cc(-c4ccccc4)nn23)cc(OC)c1OC ) has TGI equal to 27.7 µM

Please fill in: TGI reported for CC1(C)C2CC1C(/C=N\OCC(=O)O)=CC2=O (configuration not stated) = > 100 µM

Consider O=P(Oc1ccccc1)(Oc1ccccc1)C(O)c1ccccc1 (configuration not stated) . Its measured TGI is > 100 µM

For record N.N.NCCCCN.O=C([O-])CC(=O)[O-].O=C([O-])CC(=O)[O-].[Pt+4].[Pt+4] the listed TGI is > 100 µM

response.value for Cn1cc(-c2nc(-c3c[nH]c4ncccc34)cs2)c2cc(Cl)ccc21 (field: TGI) = > 100 µM

TGI reading for COc1cccc(-c2nc(-c3ccc(NS(=O)(=O)c4ccccc4)cc3)[nH]c2-c2ccnc(Br)c2)c1 : 6.62 µM

Sure, the documented TGI for Cc1cc(N(CCC#N)CCC#N)ccc1N=Nc1ccccc1[N+](=O)[O-] is > 100 µM

For this molecule ( C=C(CN1CCc2ccccc2C1)c1ccc(/C=C/C(=O)Nc2ccccc2N)cc1 ), measured TGI is > 100 µM

The reported value for CC(C)(C)C(=O)Nc1ccccc1Br in terms of TGI is > 100 µM

Form: molecule = O=c1oc2ccccc2cc1-c1nc2ccccc2c(=O)[nH]1 ; TGI = > 100 µM

Quick note, TGI for O=[N+]([O-])/C(C(Cl)=C(Cl)Cl)=C(\Nc1cccc2cccnc12)Sc1ccccc1 landed at 82.5 µM

For this molecule ( COc1ccc(C(=O)c2cc(OC)c(OC)c(OC)c2)cc1/C=C/C(=O)c1ccc(O)cc1 ), measured TGI is 26.5 µM

According to the records, this molecule CCOC(=O)c1sc2ncn(Cc3cccc(Cl)c3)c(=O)c2c1C displays TGI of 29.1 µM

The molecule listed as COC1C(=[N+]=[N-])C(=O)NC(=O)N1C1OC(COC(c2ccccc2)(c2ccccc2)c2ccccc2)C(O)C1O (configuration not stated) has a reported TGI of 38.4 µM

Measured TGI of COc1cc2c3c(n(CCCO)c(=O)c2cc1OC)-c1cc2c(cc1C3=O)OCO2 : > 100 µM

For this molecule ( CN(C)c1ccc(/C=C(\NC(=O)c2ccccc2)c2nc3ccccc3c(=O)o2)cc1 ), measured TGI is > 100 µM

The molecule listed as Brc1nc2c3ccccc3ncn2c1Br shows TGI equal to 82.6 µM

Memo: COc1ccc(/C=C/C(=O)c2cccc(C(=O)/C=C/c3ccc(OC)c(OC)c3)n2)cc1OC , reported TGI: > 100 µM

So for Cc1cc2c(c(C=Nc3ccc(N(C)C)cc3)c1)OC1(C=C2)Oc2ccccc2C(=O)N1C (configuration not stated) , the logged TGI turned out to be > 54.8 µM

Form field TGI, entry Cc1cc(Cl)ccc1NC(=O)/C(Cc1nc2ccc(C(=O)c3ccccc3)cc2[nH]c1=O)=N/NC(=O)c1ccncc1 : > 100 µM

Entry under test: Clc1ccc(Nc2ccnc(NCCNc3ccnc4cc(Cl)ccc34)n2)cc1 . Its TGI was 3.5 µM

====

Tested on: OVCAR-4 ovarian
Assay: NCI tumour cell line growth inhibition, 48 h
Kindly supply the reported TGI values for the records listed here.

Data point: N/C(=N\Nc1cccc(Cl)c1)c1cccnc1 ; TGI = > 100 µM

Value of TGI reported for the compound O=c1oc2ccccc2cc1-c1nc2ccccc2c(=O)[nH]1 is > 100 µM

TGI reported for this compound COC1C(=[N+]=[N-])C(=O)NC(=O)N1C1OC(COC(c2ccccc2)(c2ccccc2)c2ccccc2)C(O)C1O (stereo unspecified) : 27.8 µM

Note to self: TGI recorded for O=C1NC(=O)C2=C1CCC2O (stereo unspecified) was > 100 µM

Entry COc1cccc2c(Nc3ccc(C(=O)NCCNCCO)cc3)cc(-c3ccccc3)nc12 — recorded TGI = 43.7 µM

Per the records, this compound ( Cc1ccc(C)c(-n2c(-c3ccc(Br)cc3)csc2=NC(=O)c2ccccc2F)c1 ) has TGI equal to > 100 µM

====

What TGI was measured for each of the following?
Tested on: SK-MEL-5 melanoma
Experiment: NCI tumour cell line growth inhibition, 48 h

COc1ccc(-c2c(C#N)c(N)n(C3OCC(O)C(O)C3O)c(=S)c2C#N)cc1 (stereo not drawn) has a reported TGI of > 100 µM

Reported TGI ( O=c1oc2ccccc2cc1-c1ccc([N+](=O)[O-])cc1 ) = > 100 µM

Reported TGI ( Cc1nc2ccc(S(=O)(=O)Nc3ccccn3)cc2c(=O)n1NS(=O)(=O)c1ccccn1 ) = > 100 µM

====

Test system: A549 NSCLC
Assay: NCI tumour cell line growth inhibition, 48 h; in the data active = GI50 below about 0.43 µM; inactive = the rest
Entry note: the call must match one of Yes = active, No = inactive

Status in this test for N#Cc1c2ccccc2c2nnc3cc(C(F)(F)F)ccc3n12 ?
No

Tell me the assay call for Cc1cc(S(=O)(=O)Nc2nnc(-c3ccco3)c(-c3ccco3)n2)c(SCc2ccccc2)cc1Cl please.
No

Please let me know the test result on file for c1ccc(Oc2c3ccccc3nc3ccccc23)cc1 .
No

Outcome? O=C(CCl)Nc1ccccc1SCc1cc(Cl)cc2c1OCOC2
No

Hi team, can someone confirm the assay call for NCCCn1c2c(c3ccccc3c1=O)C(=O)c1cc3c(cc1-2)OCO3 ?
Yes

Could you kindly confirm the outcome this assay logged for COc1ccc(-c2nc3sccn3c2/C=C/C(=O)c2cc(OC)c(OC)c(OC)c2)cc1OC ?
No

How was COC(=O)/C=C1\SC(=Nc2ccc(C(F)(F)F)cc2)N(CCc2c[nH]c3ccccc23)C1=O classified in this test?
No

For O=C(CSc1nc2ccc([N+](=O)[O-])cc2[nH]1)Nc1cccc(C(F)(F)F)c1 , which call appears in the assay record?
No

I would be grateful if you could indicate the recorded call for COc1c(O)cc2oc3cc(O)c(CC=C(C)C)c(O)c3c(=O)c2c1C/C=C(\C)CCC=C(C)C .
No

Each compound tested received a call. Report the one for O=C(Nc1cccc(NS(=O)(=O)c2ccc(F)cc2)c1)c1ccc(-c2ccccc2)cc1 .
No

What did the test return for COc1ccc(/C=C\c2cc(OC)c(OC)c(OC)c2)cc1NC(=O)[C@@H](N)CO ?
Yes

What did this assay record as the result for COc1ccc(/C=C/C(=O)/C=C(/C=C/c2ccc(OC)c(OC)c2)OB(F)F)cc1OC ?
No

Answer briefly: the call reported for COc1cccc(-c2nc(-c3ccc(NS(=O)(=O)c4ccccc4)cc3)[nH]c2-c2ccnc(Br)c2)c1 in this assay.
No

These entries and their values trace back to PubChem BioAssay (NCI).
